Cited source for all entries: ChEMBL document CHEMBL2390937

- Test Target: 11-beta-HSD1 (Rattus norvegicus)
- Assay Overview: Binding affinity to rat liver microsomal 11beta-HSD1 by radiometric competition assay
Assay Readout: Kd (nM)
Please respond with the number in nM and leave the unit unwritten.

stdin: Give its Kd value. Item: [3H]c1cc(-c2nnc(C34CCC(c5noc(C(C)(F)F)n5)(CC3)CC4)n2C)c(C(F)(F)F)cc1[3H]
stdout: 11

====

- Tested on: Plasma
- Assay Overview: Free plasma concentration in spontaneously hypertensive rat at 10 mg/kg measured after 4 hrs
- Format: ADME, organism-based
- Design: dose 10 mg/kg
- Assay Setup: in vivo
Reported Cp(f) values for a set of compounds
Unit µM implied. Number only.

Cn1c(-c2ccccc2C(F)(F)F)nnc1C12CCC(c3nc(-c4ccc(F)cc4)no3)(CC1)CC2 | 0.07
Cn1c(-c2ccccc2C(F)(F)F)nnc1C12CCC(c3noc(C(C)(F)F)n3)(CC1)CC2 | 2.5
CCS(=O)(=O)CCC12CCC(c3nnc(-c4ccccc4C(F)(F)F)n3C)(CC1)CC2 | 9.5

Here's the next entry for you.
stdin: # get_value(readout='Cp(f)', item= CCS(=O)(=O)CC12CCC(c3nnc(-c4ccccc4C(F)(F)F)n3C)(CC1)CC2 )
stdout: 8
